Catalogue of log10 IC50 readings, one per entry.
study-target: recombinant human Meningioma Expressed Antigen 5 (MGEA5), also referred to as O-GlcNAcase (OGA) (Homo sapiens, UniProt O60502)
Construct: Full length OGA enzyme was purchased at OriGene (cat # TP322411); purchased OriGene TP322411
Sequence (O60502 1-916): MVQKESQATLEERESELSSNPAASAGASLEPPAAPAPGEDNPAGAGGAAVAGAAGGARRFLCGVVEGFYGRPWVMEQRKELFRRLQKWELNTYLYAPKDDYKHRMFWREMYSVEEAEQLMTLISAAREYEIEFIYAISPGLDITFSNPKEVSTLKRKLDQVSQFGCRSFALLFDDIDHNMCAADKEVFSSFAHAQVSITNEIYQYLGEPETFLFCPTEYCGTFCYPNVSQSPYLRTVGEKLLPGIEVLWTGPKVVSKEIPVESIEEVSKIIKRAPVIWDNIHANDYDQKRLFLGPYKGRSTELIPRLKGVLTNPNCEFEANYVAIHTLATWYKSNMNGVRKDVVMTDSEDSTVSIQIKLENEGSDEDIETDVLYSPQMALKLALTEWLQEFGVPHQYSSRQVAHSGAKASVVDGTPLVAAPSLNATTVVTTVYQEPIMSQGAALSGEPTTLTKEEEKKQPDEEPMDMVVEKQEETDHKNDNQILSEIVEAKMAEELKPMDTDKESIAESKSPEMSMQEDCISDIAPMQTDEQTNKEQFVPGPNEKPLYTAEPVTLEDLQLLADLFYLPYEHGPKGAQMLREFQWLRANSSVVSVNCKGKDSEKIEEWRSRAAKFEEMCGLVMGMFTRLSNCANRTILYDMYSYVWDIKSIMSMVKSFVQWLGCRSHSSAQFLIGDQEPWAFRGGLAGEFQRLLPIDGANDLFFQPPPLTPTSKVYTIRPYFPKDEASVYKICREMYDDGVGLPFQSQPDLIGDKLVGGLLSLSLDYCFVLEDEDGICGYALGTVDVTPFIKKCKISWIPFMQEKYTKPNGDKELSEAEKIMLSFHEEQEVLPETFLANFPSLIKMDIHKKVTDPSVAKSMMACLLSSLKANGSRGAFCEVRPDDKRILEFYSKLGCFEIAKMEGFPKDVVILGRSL
assay-method-text: OGA biochemical assay: inhibition of FM-GlcNAc hydrolysis, fluorescence; protocol A (10 nM OGA, 1 h) or protocol B (2 nM OGA, 6 h)
test-context: Enzymatic protocol B (2 nM OGA, 6 h); read-out: Enzymatic hOGA; pIC50 (converted)
Source text: The assay is based on the inhibition of the hydrolysis of fluorescein mono-3-D-N-Acetyl-Glucosamine (FM-GlcNAc) (Mariappa et al. 2015, Biochem J 470:255) by the recombinant human Meningioma Expressed Antigen 5 (MGEA5), also referred to as O-GlcNAcase (OGA). […] The fluorescence of the latter can be measured at excitation wavelength 485 nm and emission wavelength 538 nm. An increase in enzyme activity results in an increase in fluorescence signal. […]
readout-label: log10 IC50 (log10 of the value in nM)

1) CC(=O)Nc1ncc([C@@H](C)N2CCC[C@H](COc3cc(C)nc(C)c3)C2)s1 (single isomer, unassigned) | 1.98
2) CC(=O)Nc1ncc(CN2CC[C@H](Cc3cc(C(F)(F)F)cnc3C)C2)s1 | 1.73
3) COc1cnc(C[C@H]2CCN(Cc3cnc(NC(C)=O)s3)C2)c(F)c1 | 1.08
4) CC(=O)Nc1ncc(CN2CC[C@@H](Cc3ccc(C(F)(F)F)c(C)n3)C2)s1 | 1.75
5) Cc1cc(CC2CCCN(C(C)c3ccc4nccnc4c3)C2)cc(C)n1 (racemic) | 1.00
6) CC(=O)Nc1ncc(CN2CCC[C@@H](Cc3cc(C)nc(C)c3)[C@H]2C)s1 (single isomer, unassigned) [compound 170] | 1.91
7) CC(=O)Nc1ncc(CN2CCC[C@H](Oc3cc(C)nc(C)c3)C2)s1 | 1.85
8) CC(=O)Nc1ncc(CN2CCC[C@H](Cc3ncc(F)cc3F)C2)s1 | 0.63
9) CC(=O)Nc1ncc(CN2CCC[C@H](Nc3cc(C)nc(C)c3)C2)s1 | 0.57
10) COc1cc(C[C@H]2CCN(Cc3cnc(NC(C)=O)s3)C2)cc(C)n1 | 0.92
11) COc1cc(C[C@H]2CCN(Cc3cnc(NC(C)=O)s3)C2)cc(C(F)(F)F)n1 | 1.33
12) Cc1cc(C[C@H]2CCCN(Cc3ccc4scnc4c3)C2)cc(C)n1 | 2.45
13) CC(=O)Nc1ncc(CN2CC[C@@H](Cc3ncc(C)cc3C(F)(F)F)C2)s1 | 1.10
14) CC(=O)Nc1ncc(CN2CCC(Cc3ccc(F)c(C)n3)C2)s1 (centres unmarked) | 1.61
15) CC(=O)Nc1ncc(CN2CCC[C@@H](Oc3cc(C)nc(C)c3)C2)s1 | 0.93
16) CC(=O)Nc1ncc(CN2CC[C@H](Cc3ccnc(F)c3)C2)s1 | 1.36

Values were extracted from patent US20200079766A1.
